Quick reference for pKi among some molecules
- TESTED SYSTEM: Delta-type opioid receptor (Rattus norvegicus, UniProt P33533)
- Sequence (P33533 whole entry): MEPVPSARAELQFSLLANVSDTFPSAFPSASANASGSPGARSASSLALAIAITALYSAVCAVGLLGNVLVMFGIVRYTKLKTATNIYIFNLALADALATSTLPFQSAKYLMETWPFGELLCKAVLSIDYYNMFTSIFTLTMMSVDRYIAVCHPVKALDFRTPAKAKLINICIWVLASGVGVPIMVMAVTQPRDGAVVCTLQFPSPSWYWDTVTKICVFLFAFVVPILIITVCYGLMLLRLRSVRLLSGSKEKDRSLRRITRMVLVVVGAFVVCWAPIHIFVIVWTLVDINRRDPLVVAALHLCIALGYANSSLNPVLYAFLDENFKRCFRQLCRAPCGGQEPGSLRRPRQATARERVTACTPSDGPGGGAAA
- ASSAY INFO: In vitro binding affinity to Opioid receptor delta 1 in rat brain membranes by [3H]DADLE (Tyr-D-Ala-Gly-Phe-D-Leu) displacement.
- Format: cell membranes
The read-out pKi is expressed as -log10 of concentration in moles per litre.

Study these solved cases before continuing.
CCN(CC)C(=O)c1ccc(C(OCCN(C)C)c2cccc(OC)c2)cc1 (stereo not given) :: 6.59
CCN(CC)C(=O)c1ccc(C(=C2CCNCC2)c2cccc(OC)c2)cc1 :: 8.30
CCN(CC)C(=O)c1ccc(C(c2ccccc2)N2CCN(Cc3ccccc3)CC2)cc1 (stereo not given) :: 8.83
C=CCN1CCN(C(c2ccccc2)c2ccc(C(=O)N(CC)CC)cc2)CC1 (stereo not given) :: 7.98

Lookup: Look up and report measured pKi (Delta-type opioid receptor (Rattus norvegicus, UniProt P33533)) for the following molecule: CCN(CC)C(=O)c1ccc(C(NCCN(C)C)c2cccc(OC)c2)cc1 (stereo not given)
Found: 6.21
